Reported IC50 values follow for various molecules
- systemUnderTest: Glycogen synthase kinase-3 beta (Homo sapiens, UniProt P49841)
- Sequence (P49841 whole entry): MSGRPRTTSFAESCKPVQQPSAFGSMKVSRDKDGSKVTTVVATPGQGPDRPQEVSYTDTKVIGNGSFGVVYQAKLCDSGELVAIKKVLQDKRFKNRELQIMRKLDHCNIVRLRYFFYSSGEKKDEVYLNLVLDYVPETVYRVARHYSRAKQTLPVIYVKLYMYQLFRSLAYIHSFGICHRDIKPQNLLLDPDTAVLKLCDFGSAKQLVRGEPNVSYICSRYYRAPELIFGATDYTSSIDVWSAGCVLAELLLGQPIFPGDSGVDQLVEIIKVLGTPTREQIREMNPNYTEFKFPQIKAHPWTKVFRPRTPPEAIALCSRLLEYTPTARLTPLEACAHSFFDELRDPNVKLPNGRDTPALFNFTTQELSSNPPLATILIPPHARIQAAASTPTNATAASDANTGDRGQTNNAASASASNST
- protocolDetails: Inhibition of human recombinant GSK3-beta using gamma[33P]-ATP after 30 mins by scintillation proximity assay

As a guide, the following entries are already answered.
>>> df
                             compoundstring  endpointvalue
0  CCCC(=O)Nc1n[nH]c2cc(-c3ccc(CC)cc3)ccc12       > 100 µM
1  CCCC(=O)Nc1n[nH]c2cc(-c3ccc([N+](=O)[O-])cc3)ccc12       > 100 µM

For the molecule CCCC(=O)Nc1n[nH]c2cc(-c3ccc(OC)cc3)ccc12 , the measured IC50 on Glycogen synthase kinase-3 beta (Homo sapiens, UniProt P49841) was > 100 µM
